Biological target: 11β-HSD1 (Homo sapiens)
Experiment: biochemical
pIC50: −log10 of the molar value.
ASSAY_ENDPOINT: pIC50

Query: // lookup pIC50 | system=11β-HSD1 (Homo sapiens) | key= C[C@@H](c1ccc(-c2ccc[n+]([O-])c2)cc1)N1CC[C@](CCC(N)=O)(c2ccccc2)OC1=O [EXAMPLE 50]
Response: > 7.00

###

Attribute: pIC50
Target: 11β-HSD1 (Homo sapiens, UniProt P28845)
Sequence (P28845 whole entry): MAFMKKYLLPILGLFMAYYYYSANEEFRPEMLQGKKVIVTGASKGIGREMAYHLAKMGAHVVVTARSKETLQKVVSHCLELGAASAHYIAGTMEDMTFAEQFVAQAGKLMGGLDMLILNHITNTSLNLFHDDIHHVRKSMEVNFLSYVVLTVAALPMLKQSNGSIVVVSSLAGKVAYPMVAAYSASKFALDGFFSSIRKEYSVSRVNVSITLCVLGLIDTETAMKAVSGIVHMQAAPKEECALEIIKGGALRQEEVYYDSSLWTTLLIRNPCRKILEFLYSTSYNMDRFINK
Test: Biological Test Example 4: microsomal 11β-HSD1 in the presence of 50% human plasma
When answering, recall that pIC50 equals minus log10 of the concentration in mol/L, and write that number alone.

These recorded examples may help you get a feel for the data.
- COMPOUND_STRUCTURE_STRING: "Cc1ccc(-c2ccc([C@H](C)N3CC[C@](CC(C)(C)O)(c4ccc(F)cc4)OC3=O)cc2)nn1"
  pIC50: 8.19
- COMPOUND_STRUCTURE_STRING: "COc1ccc(-c2ccc([C@H](C)N3CC[C@](CCCNS(C)(=O)=O)(c4ccccc4)OC3=O)cc2)cn1"
  pIC50: 8.30
- COMPOUND_STRUCTURE_STRING: "C[C@@H](c1ccc(-c2ncc(F)cn2)cc1)N1CC[C@](CC(C)(C)O)(c2ccccc2)OC1=O"
  pIC50: 7.98

Switching to the query record.
Query: Query (molecule): C[C@@H](c1ccc(-c2ccccn2)cc1)N1CC[C@](CCO)(c2ccc(F)cc2)OC1=O ; field requested: pIC50
Response: 7.72

###

Target: 11β-HSD1 (Homo sapiens, UniProt P28845)
Details: read-out: Biological Test Example 1 IC50
ASSAY_ENDPOINT: pIC50
When answering, recall that pIC50 equals minus log10 of the concentration in mol/L, and write that number alone.

Query: Query (compound): Cc1cc(-c2ccc([C@H](C)N3CCC(CCN4CCCS4(=O)=O)(c4ccccc4)OC3=O)cc2)ccn1 (stereo in doubt) ; field requested: pIC50
Response: 7.72

###

Biological target: UniProtKB P28845
Experiment: Biological Test Example 4: microsomal 11β-HSD1 in the presence of 50% human plasma
Conditions: IC50 in Test Example 4 divided by IC50 in Test Example 1
ASSAY_ENDPOINT: Shift

These recorded examples may help you get a feel for the data.
- COMPOUND_STRUCTURE_STRING: "C[C@@H](c1ccc(-c2cnccn2)cc1)N1CC[C@](CCCO)(c2ccc(F)cc2)OC1=O"
  Shift: 4.0
- COMPOUND_STRUCTURE_STRING: "COc1ccc(-c2ccc([C@H](C)N3CC[C@](CCO)(c4ccc(F)cc4)OC3=O)cc2)cn1"
  Shift: 18.4
- COMPOUND_STRUCTURE_STRING: "Cc1nccc(-c2ccc([C@H](C)N3CC[C@](CCCO)(c4ccc(F)cc4)OC3=O)cc2)n1"
  Shift: 8.7
- COMPOUND_STRUCTURE_STRING: "COc1ccc(-c2ccc([C@H](C)N3CC[C@](CCCNS(C)(=O)=O)(c4ccc(F)cc4)OC3=O)cc2)cn1"
  Shift: 9.9
- COMPOUND_STRUCTURE_STRING: "C[C@@H](c1ccc(-c2nc(C(=O)NC3CC3)cs2)cc1)N1CC[C@](CC(C)(C)O)(c2ccccc2)OC1=O"
  Shift: 10.4

Query: Query (compound): C[C@@H](c1ccc(-c2ncccn2)cc1)N1CC[C@](CCCO)(c2ccc(F)cc2)OC1=O ; field requested: Shift
Response: 3.1

Query: Repeat with Cc1cc(-c2ccc([C@H](C)N3CC[C@](CC(C)(C)C#N)(c4ccc(F)cc4)OC3=O)cc2)ccn1
Response: 5.1
